system-tested: BRD4(1) (Homo sapiens (Human), UniProt O60885)
procedure-text: BROMOscan KD determination
Assay type: binding
assay-conditions: Table 10
Measured Kd accompanies every entry in the list below.

Example molecules with recorded Kd:
>>> observed_measurement("COC(=O)c1ccc(N[C@@H]2C[C@H](C)N(C(C)=O)c3ccc(-c4cccc(NC(C)=O)c4)cc32)cc1 [compound 4]")
"27 nM"
>>> observed_measurement("CC(=O)Nc1cccc(-c2ccc3c(c2)[C@H](Nc2ccccc2OC(F)(F)F)C[C@H](C)N3C(C)=O)c1 [compound 19]")
"99 nM"
>>> observed_measurement("CC(=O)Nc1cccc(-c2ccc3c(c2)[C@H](Nc2ccccc2C(F)(F)F)C[C@H](C)N3C(C)=O)c1 [compound 41]")
"410 nM"
>>> observed_measurement("CC(=O)Nc1cccc(-c2ccc3c(c2)[C@H](Nc2ccc4ncccc4c2)C[C@H](C)N3C(C)=O)c1 [compound 13]")
"17 nM"
>>> observed_measurement("CC(=O)N1c2ccc(-c3cccc(-n4cccn4)c3)cc2[C@H](Nc2ccc(Cl)cc2)C[C@@H]1C [compound 136]")
"270 nM"
>>> observed_measurement("COC(=O)c1ccc(N[C@@H]2C[C@H](C)N(C(C)=O)c3ccc(-c4ccnn4C)cc32)cc1 [compound 49]")
"14 nM"
>>> observed_measurement("CCCOc1cccc(-c2ccc3c(c2)[C@H](Nc2ccc(C(=O)OC)cc2)C[C@H](C)N3C(C)=O)c1 [compound 56]")
"140 nM"

As a next step, examine the molecule that follows.
Fill in the recorded Kd for this molecule, with BRD4(1) (Homo sapiens (Human), UniProt O60885) as test system: COC(=O)c1ccc(N[C@@H]2C[C@H](C)N(C(C)=O)c3ccc(-c4cccc(NCCC(F)(F)F)c4)cc32)cc1 [compound 47] 32 nM

* * *

system-tested: BRD2-BD2 (Homo sapiens (Human), UniProt P25440)
procedure-text: competitive TR-FRET assay, BET-BD with acetylated peptide ligand
assay-conditions: Table 2, inhibitor potency by TR-FRET
Sequence (P25440 344-453): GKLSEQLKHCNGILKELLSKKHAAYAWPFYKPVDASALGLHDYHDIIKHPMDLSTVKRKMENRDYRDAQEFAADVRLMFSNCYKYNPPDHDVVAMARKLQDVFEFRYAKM
Measured IC50 values are reported for all entries that follow.
Please respond with the number in µM and leave the unit unwritten.

Use these answered entries as a reference point.
>>> observed_measurement("CC(=O)N1c2ccc(-c3cc[nH]c3)cc2[C@H](NC(=O)OC(C)C)C[C@@H]1C")
0.37
>>> observed_measurement("CC(=O)N1c2ccc(-c3ccoc3)cc2[C@H](NC(=O)OC(C)C)C[C@@H]1C")
1.42
>>> observed_measurement("CC(=O)N1c2ccc(-c3cccs3)cc2[C@H](NC(=O)OC(C)C)C[C@@H]1C")
0.34

Let us move to another entry and its IC50.
Please provide the recorded IC50 for CC(=O)N1c2ccc(-c3ccsc3)cc2[C@H](NC(=O)OC(C)C)C[C@@H]1C , tested on BRD2-BD2 (Homo sapiens (Human), UniProt P25440). 0.97

* * *

Each entry below carries its recorded −TΔS.
system-tested: BRD2-BD2 (Homo sapiens (Human), UniProt P25440)
procedure-text: isothermal titration calorimetry analysis of binding
assay-conditions: ITC, BRD2-BD2
Sequence (P25440 348-455): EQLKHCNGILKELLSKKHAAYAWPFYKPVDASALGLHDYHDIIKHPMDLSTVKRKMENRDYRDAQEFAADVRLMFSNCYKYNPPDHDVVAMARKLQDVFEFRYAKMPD
State just the number; it will be interpreted in kcal/mol.

Below, each entry is followed by its recorded −TΔS result.
>>> observed_measurement("CC(=O)N1c2ccc(-c3ccc[nH]3)cc2[C@H](NC(=O)OC(C)C)C[C@@H]1C")
-2.92
>>> observed_measurement("CC(=O)N1c2ccc(-c3cc[nH]c3)cc2[C@H](NC(=O)OC(C)C)C[C@@H]1C")
-3.32
>>> observed_measurement("CC(=O)N1c2ccc(-c3ccsc3)cc2[C@H](NC(=O)OC(C)C)C[C@@H]1C")
-3.33

Item CC(=O)N1c2ccc(-c3cccs3)cc2[C@H](NC(=O)OC(C)C)C[C@@H]1C has what recorded −TΔS? -2.94

Next record, please: CC(=O)N1c2ccc(-c3ccoc3)cc2[C@H](NC(=O)OC(C)C)C[C@@H]1C -2.29

* * *

system-tested: BRD2(1) (Homo sapiens (Human), UniProt P25440)
Sequence (P25440 74-180): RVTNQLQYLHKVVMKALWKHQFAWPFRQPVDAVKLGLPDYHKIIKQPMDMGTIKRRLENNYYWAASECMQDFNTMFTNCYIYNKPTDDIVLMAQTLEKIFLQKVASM
procedure-text: BROMOscan KD determination
assay-conditions: Table 10
The following compounds are listed with their measured Kd values.
// units = nM; emit number, no label

>>> observed_measurement("CCCOc1cccc(-c2ccc3c(c2)[C@H](Nc2ccc(C(=O)OC)cc2)C[C@H](C)N3C(C)=O)c1")
160
>>> observed_measurement("CC(=O)Nc1cccc(-c2ccc3c(c2)[C@H](Nc2ccc4ncccc4c2)C[C@H](C)N3C(C)=O)c1")
28
>>> observed_measurement("CC(=O)N1c2ccc(-c3cccc(-n4cccn4)c3)cc2[C@H](Nc2ccc(Cl)cc2)C[C@@H]1C")
350

Query Kd on BRD2(1) (Homo sapiens (Human), UniProt P25440) for CC(=O)Nc1cccc(-c2ccc3c(c2)[C@H](Nc2ccccc2C(F)(F)F)C[C@H](C)N3C(C)=O)c1 790

Next up: COC(=O)c1ccc(N[C@@H]2C[C@H](C)N(C(C)=O)c3ccc(-c4cccc(NC(C)=O)c4)cc32)cc1 24

And what about the compound CC(=O)N1c2ccc(-c3ccc(C(=O)O)cc3)cc2[C@H](Nc2ccc(Cl)cc2)C[C@@H]1C [GSK-726, IBET-726, reference compound] ? 4.7

Also COC(=O)c1ccc(N[C@@H]2C[C@H](C)N(C(C)=O)c3ccc(-c4ccnn4C)cc32)cc1 ? 23

Next record, please: COC(=O)c1ccc(N[C@@H]2C[C@H](C)N(C(C)=O)c3ccc(-c4cccc(NCCC(F)(F)F)c4)cc32)cc1 41

Now consider CC(=O)Nc1cccc(-c2ccc3c(c2)[C@H](Nc2ccccc2OC(F)(F)F)C[C@H](C)N3C(C)=O)c1 . 170

* * *

system-tested: BRD2-BD1 (Homo sapiens (Human))
procedure-text: isothermal titration calorimetry analysis of binding
assay-conditions: ITC, BRD2-BD1
Sequence (P25440 74-194): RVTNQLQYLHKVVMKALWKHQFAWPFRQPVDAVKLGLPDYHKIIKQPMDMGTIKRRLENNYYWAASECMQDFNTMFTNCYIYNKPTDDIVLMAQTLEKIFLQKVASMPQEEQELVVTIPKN
# label = y if −TΔS >= -2 kcal/mol else n

Sample answers from the record:
>>> qualitative_label("CC(=O)N1c2ccc(-c3ccoc3)cc2[C@H](NC(=O)OC(C)C)C[C@@H]1C")
"y"
>>> qualitative_label("CC(=O)N1c2ccc(-c3ccco3)cc2[C@H](NC(=O)OC(C)C)C[C@@H]1C")
"y"
>>> qualitative_label("CC(=O)N1c2ccc(-c3ccsc3)cc2[C@H](NC(=O)OC(C)C)C[C@@H]1C")
"y"
>>> qualitative_label("CC(=O)N1c2ccc(-c3ccc[nH]3)cc2[C@H](NC(=O)OC(C)C)C[C@@H]1C")
"n"

// next entry
Tell me whether −TΔS is at least -2 kcal/mol here: CC(=O)N1c2ccc(-c3cccs3)cc2[C@H](NC(=O)OC(C)C)C[C@@H]1C y

* * *

Quick reference for EC50 among some compounds
system-tested: BRD2-BD1 (Homo sapiens (Human), UniProt P25440)
procedure-text: competitive TR-FRET assay, BET-BD with acetylated peptide ligand
Format: binding
assay-conditions: BRD2-BD1; Table 11 additional modifications; read-out: 2.1 EC50
Description: Inhibitor potency was determined using a competitive TR-FRET assay as detailed herein, measuring interaction of the respective BET-BD with an acetylated peptide ligand (Table 2).
Give just the number in µM; leave the unit off.

>>> observed_measurement("CCC(=O)N[C@@H]1C[C@H](C)N(C(C)=O)c2ccc(-c3cccc(NC(C)=O)c3)cc21")
24
>>> observed_measurement("COc1ccc(C(=O)N[C@@H]2C[C@H](C)N(C(C)=O)c3ccc(-c4cccc(NC(C)=O)c4)cc32)cc1")
71
>>> observed_measurement("CC(=O)N1c2ccc(-c3cccc(NCCC(F)(F)F)c3)cc2[C@H](Nc2ccccc2OC(F)(F)F)C[C@@H]1C")
90
>>> observed_measurement("COC(=O)c1cccc(N[C@@H]2C[C@H](C)N(C(C)=O)c3ccc(-c4cccc(NC(C)=O)c4)cc32)c1")
81
>>> observed_measurement("CC(=O)N1c2ccc(-c3cccc(N(CC4CC4)CC4CC4)c3)cc2[C@H](Nc2ccccc2OC(F)(F)F)C[C@@H]1C")
79
>>> observed_measurement("CC(=O)N1c2ccc(-c3cccc(N)c3)cc2[C@H](NC(=O)OC(C)C)C[C@@H]1C")
0.73
>>> observed_measurement("CC(=O)Nc1cccc(-c2ccc3c(c2)[C@H](Nc2ccccc2C#N)C[C@H](C)N3C(C)=O)c1")
2.2
>>> observed_measurement("CCCN(CCC)c1cccc(-c2ccc3c(c2)[C@H](Nc2ccccc2OC(F)(F)F)C[C@H](C)N3C(C)=O)c1")
17
>>> observed_measurement("COc1cc(C#N)ccc1N[C@@H]1C[C@H](C)N(C(C)=O)c2ccc(-c3cccc(NC(C)=O)c3)cc21")
0.67
>>> observed_measurement("CC(=O)Nc1cccc(-c2ccc3c(c2)[C@H](Nc2ccc(N(C)C(C)=O)cc2)C[C@H](C)N3C(C)=O)c1")
3.2

Which EC50 is reported for this compound? CCCNc1cccc(-c2ccc3c(c2)[C@H](NC(=O)OC(C)C)C[C@H](C)N3C(C)=O)c1 1.9
